Tested on: Proteus vulgaris
Test Details: MIC against Gram-negative bacteria: Proteus vulgaris
Format: cell-based
Run Parameters: P. vulgaris; 10 h cultivation at 37° C.
Experimental: 1. Gram-negative bacteria, such as E. coli BL21, Pseudomonas aeruginosa, Klebsiella pneumonia, Enterobacter cloacae, Aeromonas hydrophila, Citrobacter diversus, Moraxella catarrhalis, Proteus mirabilis, Proteus vulgaris, Serratia marcescens, etc were streaked on solid LB medium and cultured respectively. Then, typical clones were picked, inoculated into common liquid LB medium respectively, and cultured at 37° C. with shaking at 185 rpm until the McFarland specific turbidity was 0.5. […]
So I've got a bunch of substances here, and I need their MIC values.
# unit: µg/mL | format: bare number

Missing value: MIC, Proteus vulgaris, entry PRT917 (DVNECGQKPGLCRHGGTCHNEVGSYRCVCRATHTGPNCE; listed as Homo sapiens) . Fill in? 25

Field: MIC (Proteus vulgaris). Entry: PRT898 (NNNECESNPCVNGGTCKDMTSGYVCTCREGFSGPNCQ; listed as Homo sapiens) 25

State its MIC on Proteus vulgaris: PRT1013 (LEDPCPPSFCSKRGRCHIQASGRPQCSCMPGWTGEQCQ; listed as Homo sapiens) 25

// lookup MIC | system=Proteus vulgaris | key= PRT916 (QADPCASNPCANGGQCLPFEASYICHCPPSFHGPTCR; listed as Homo sapiens) 50

Item: PRT909 (LVDECSPSPCQNGATCTDYLGGYSCKCVAGYHGVNCS; listed as Homo sapiens) Test system: Proteus vulgaris Read-out: MIC Value: ? 50

Test system Proteus vulgaris; read-out MIC; what value for PRT907 (PSVSCEVAAQRQGVDVARLCQHGGLCVDAGNTHHCRCQAGYTGSYCE; listed as Homo sapiens) ? 25

Form entry - test system: Proteus vulgaris; read-out: MIC; substance: PRT923 (LDDACISNPCHKGALCDTNPLNGQYICTCPQGYKGADCT; listed as Homo sapiens) 50

Quick check: MIC on Proteus vulgaris, item PRT1032 (DVNECDIPGHCQHGGTCLNLPGSYQCQCLQGFTGQYCD; listed as Homo sapiens) ? 12.5

# query: MIC | item PRT1023 (PINYCETGLHNCDIPQRAQCIYTGGSSYTCSCLPGFSGDGQACQ; listed as Homo sapiens) | system: Proteus vulgaris 50

# query: MIC | item PRT1003 (STDYCVSAPCFNGGTCVNRPGTFSCLCAMGFQGPRCE; listed as Homo sapiens) | system: Proteus vulgaris 25

Lab note: need MIC with Proteus vulgaris for entry PRT1038 (FDMPCDETLCSADSFCVNDYTWGGSRCQCTLGKGGESCS; listed as Homo sapiens) , please look it up. 12.5

Request: MIC, test system Proteus vulgaris, entry PRT1042 (SGFFCPSTHSCQNGGVFQTPQGSCSCPPGWMGTICS; listed as Homo sapiens) 25

Kindly state the measured MIC obtained for PRT974 (EADPCLSRPCLHGGVCSAAHPGFRCTCLESFTGPQCQ; listed as Homo sapiens) with Proteus vulgaris. 25

Kindly state the measured MIC obtained for PRT976 (IGVRLEQLCQAGGQCVDEDSSHYCVCPEGRTGSHCE; listed as Homo sapiens) with Proteus vulgaris. 25

Value wanted: MIC (Proteus vulgaris) of entry PRT994 (DHNECLSQPCHPGSTCLDLLATFHCLCPPGLEGQLCE; listed as Homo sapiens) 50

Lab request: please report MIC under test system Proteus vulgaris for PRT946 (EVDECQNQPCQNGGTCIDLVNHFKCSCPPGTRGLLCE; listed as Homo sapiens) 12.5

Query for Proteus vulgaris: what MIC does the record show for PRT942 (LVNLCSRSPCKNKGTCVQKKAESQCLCPSGWAGAYCD; listed as Homo sapiens) ? 12.5

Given the entry PRT1009 (DVDECLDQPCHPTGTAACHSLANAFYCQCLPGHTGQWCE; listed as Homo sapiens) , what MIC was observed with Proteus vulgaris? 25

Kindly state the measured MIC obtained for PRT902 (DIDDCRPNPCHNGGSCTDGINTAFCDCLPGFRGTFCE; listed as Homo sapiens) with Proteus vulgaris. 25

Provide the documented MIC with Proteus vulgaris as the system for PRT915 (ASSPCLGGNPCYNQGTCEPTSESPFYRCLCPAKFNGLLCH; listed as Homo sapiens) 25

I'm curious: which MIC was measured for PRT951 (WTDACLSHPCANGSTCTTVANQFSCKCLTGFTGQKCE; listed as Homo sapiens) tested on Proteus vulgaris? 50

Form entry - test system: Proteus vulgaris; read-out: MIC; substance: PRT1001 (EMTACHSGPCLNGGSCNPSPGGYYCTCPPSHTGPQCQ; listed as Homo sapiens) 25

Find MIC (Proteus vulgaris) for the entry PRT1028 (DENECATGFHRCGPNSVCINLPGSYRCECRSGYEFADDRHTCI; listed as Homo sapiens) 25

Short answer please: MIC, Proteus vulgaris, entry PRT919 (NIDDCPGNNCKNGGACVDGVNTYNCRCPPEWTGQYCT; listed as Homo sapiens) 25

Test system Proteus vulgaris; read-out MIC; what value for PRT1006 (PLSSCQKAALSQGIDVSSLCHNGGLCVDSGPSYFCHCPPGFQGSLCQ; listed as Homo sapiens) ? 50

Hello, I am looking for reported MIC with Proteus vulgaris for PRT930 (NFDDCASNPCIHGICMDGINRYSCVCSPGFTGQRCN; listed as Homo sapiens) . Could you help? 12.5

What value of MIC on Proteus vulgaris does PRT1017 (NPDNCVSHQCQNGGTCQDGLDTYTCLCPETWTGWDCS; listed as Homo sapiens) have? 12.5

Proteus vulgaris / MIC / PRT991 (RGLLCGSFPEPCANGGTCLSLSLGQGTCQCAPGFLGETCQ; listed as Homo sapiens) : value? 12.5

Enter reported MIC observed with Proteus vulgaris for PRT922 (LQCRDGYEPCVNEGMCVTYHNGTGYCKCPEGFLGEYCQ; listed as Homo sapiens) 25

Reported MIC for Proteus vulgaris, given PRT896 (EVNECNSNPCVHGACRDSLNGYKCDCDPGWSGTNCD; listed as Homo sapiens) ? 50

Look up MIC with Proteus vulgaris for this substance: PRT955 (DVDECLLQPNACQNGGTCANRNGGYGCVCVNGWSGDDCS; listed as Homo sapiens) 25
